Origin of the recorded values: patent US20140161804A1

# assay_system: T1, Human IL-17A (human, UniProt Q16552 20-155, limits assumed)
# T1 construct: Biotinylated in the ELISAs; purified recombinant protein in SPR; also called hIL17A; hIL-17
# T1 sequence (Q16552 20-155 limits assumed): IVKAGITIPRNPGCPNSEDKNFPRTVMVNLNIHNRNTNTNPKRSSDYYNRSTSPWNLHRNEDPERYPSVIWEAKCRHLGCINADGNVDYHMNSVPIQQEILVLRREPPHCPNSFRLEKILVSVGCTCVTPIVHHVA
# protocol_notes: SPR (Biacore T200), antibody captured by anti-human IgG Fc, antigen in solution
# Procedure: The binding of antibodies to purified recombinant IL-17 proteins was determined by surface plasmon resonance-based measurements with a Biacore® T200 instrument (GE Healthcare) using running HBS-EP (10 mM HEPES [pH 7.4], 150 mM NaCl, 3 mM EDTA, and 0.005% surfactant P20) containing 0.1 mg/ml BSA at 25° C. […] Association phase was monitored for 5 minute, while dissociation phase was monitored for 10-60 min to accommodate for slower off-rates. […]
What pKd was measured for each of the following?
A value of pKd is the negative decimal logarithm of a concentration given in moles per litre.

Supply pKd value. Item: IL17-h10F7M-B20 hIgG1/K mut (antibody, V domains shown, Full length human IgG1/kappa, IgG1 mut(234,235); also called h10F7-B20; J439M1S2(H)3 #B20) VH: EVQLVQSGAEVKKPGSSVKVSCKASGYTFTDYEIHWVRQAPGQGLEWMGVNDPESGGTFYNQKFDGRVTLTADESTSTAYMELSSLRSEDTAVYYCTRYDKWYSFEGMDIWGQGTTVTVSS VL: DIQMTQSPSSLSASVGDRVTITCRASSGIISYIDWFQQKPGKAPKRLIYATFDLASGVPSRFSGSGSGTDYTLTISSLQPEDFATYYCRQVGSYPETFGQGTKLEIK
11.67

Supply pKd value. Item: IL17-h10F7M11 hIgG1/K mut (antibody, V domains shown, Full length human IgG1/kappa, IgG1 mut(234,235); also called J439M1S3R5#11; PR-1263009) VH: EVQLVQSGAEVKKPGSSVKVSCKASGYTFTDYEIHWVRQAPGQGLEWMGVNDPESGGTFYNQKFDGRVTLTADESTSTAYMELSSLRSEDTAVYYCTRYSKWDSFDGMDYWGQGTTVTVSS VL: DIQMTQSPSSLSASVGDRVTITCRASSGIISYIDWFQQKPGKAPKRLIYATFDLASGVPSRFSGSGSGTDYTLTISSLQPEDFATYYCRQVGSYPETFGQGTKLEIK
11.80

Supply pKd value. Item: IL17-h10F7M-A6 hIgG1/K mut (antibody, V domains shown, Full length human IgG1/kappa, IgG1 mut(234,235); also called h10F7-A6; J439M1S2(H)3 #A6) VH: EVQLVQSGAEVKKPGSSVKVSCKASGYTFTDYEIHWVRQAPGQGLEWIGVNDPDSGGTLYNQKFDGRVTLTADESTSTAYMELSSLRSEDTAVYYCTRYDKWYSFEGMDIWGQGTTVTVSS VL: DIQMTQSPSSLSASVGDRVTITCSASQGIRSYIDWFQQKPGKSPKRLIYATFDLASGVPSRFSGSGSGTDYTLTISSLQPEDFATYYCRQVGNYPGTFGQGTKLEIK
11.82

Supply pKd value. Item: IL17-h10F7M-A11 hIgG1/K mut (antibody, V domains shown, Full length human IgG1/kappa, IgG1 mut(234,235); also called h10F7-A11; J439M1S2(H)3 #A11) VH: EVQLVQSGAEVKKPGSSVKVSCKASGYTFTDYEIHWVRQAPGQGLEWIGVNDPESGGTFYNQKFDGRVTLSADESTSTAYMELSSLRSEDTAVYYCTRYDKYWSFEGMDYWGQGTTVTVSS VL: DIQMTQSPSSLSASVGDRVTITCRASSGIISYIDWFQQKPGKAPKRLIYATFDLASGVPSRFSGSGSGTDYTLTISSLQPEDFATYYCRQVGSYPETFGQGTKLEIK
11.68

Supply pKd value. Item: IL17-h10F7M-B13 hIgG1/K mut (antibody, V domains shown, Full length human IgG1/kappa, IgG1 mut(234,235); also called h10F7-B13; J439M1S2(H)3 #B13) VH: EVQLVQSGAEVKKPGSSVKVSCKASGYTFSDYEIHWVRQAPGQGLEWMGVNDPESGGTFYNQKFDGRVTLTADESTSTAYMELSSLRSEDTAVYYCTRYDKYWSFEGMDYWGQGTTVTVSS VL: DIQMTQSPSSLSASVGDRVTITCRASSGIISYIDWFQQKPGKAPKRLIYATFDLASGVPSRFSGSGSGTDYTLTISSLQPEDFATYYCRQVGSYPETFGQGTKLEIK
11.59

Supply pKd value. Item: IL17-h10F7M-A16 hIgG1/K mut (antibody, V domains shown, Full length human IgG1/kappa, IgG1 mut(234,235); also called h10F7-A16; J439M1S2(H)3 #A16) VH: EVQLVQSGAEVKKPGSSVKVSCKASGYTFSDYEIHWVRQAPGQGLEWMGVNDPESGGTFYNQKFDGRVTLTADESTSTAYMELSSLRSEDTAVYYCTRYDKWYSFEGMDIWGQGTTVTVSS VL: DIQMTQSPSSLSASVGDRVTITCSASQGIRSYIDWFQQKPGKSPKRLIYATFDLASGVPSRFSGSGSGTDYTLTISSLQPEDFATYYCRQVGNYPGTFGQGTKLEIK
11.82

Supply pKd value. Item: IL17-h10F7M10 hIgG1/K mut (antibody, V domains shown, Full length human IgG1/kappa, IgG1 mut(234,235) (HC plasmid pHybE-hCg1,z,non-a,mut(234,235); LC pHybE-hCk); also called J439M1S3R5#10; PR-1262986) VH: EVQLVQSGAEVKKPGSSVKVSCKASGYTFDDYEIHWVRQAPGQGLEWIGVNDPESGGTFYNQKFDGRATLTADKSTSTAYMELSSLRSEDTAVYYCTRYDKWDSFYGMDYWGQGTTVTVSS VL: DIQMTQSPSSLSASVGDRVTITCSASSGSISYIDWFQQKPGKAPKRLIYATFELASGVPSRFSGSGSGTDFTLTISSLQPEDFATYYCHQLGSYPDTFGQGTKLEIK
11.82
